Listed compounds paired with reported inhibition zone (IZ)
# Tested on: Staphylococcus aureus
# procedure details: Antibacterial activity against methicillin-resistant Staphylococcus aureus USF659 by agar disk diffusion method
# Type: functional

| compound | system name | unit | inhibition zone (IZ) |
| --- | --- | --- | --- |
| CSN1C(=O)OC[C@@H]1C(C)C | Staphylococcus aureus | mm | 22 |
| CC1(C)S[C@@H]2[C@H](NC(=O)Cc3ccccc3)C(=O)N2[C@H]1C(=O)O | Staphylococcus aureus | mm | 16 |
| CCC(C)SN1CC(CCl)OC1=O (stereo unspecified) | Staphylococcus aureus | mm | 20 |
| CSN1C(=O)OC[C@@H]1c1ccccc1 | Staphylococcus aureus | mm | 26 |
| COC(=O)[C@@H]1OC(=O)N(SC)[C@H]1c1ccccc1 | Staphylococcus aureus | mm | 16 |
| CSN1C(=O)OC[C@H]1c1ccccc1 | Staphylococcus aureus | mm | 26 |
| CO[C@H]1C(=O)N(SC)[C@H]1c1ccccc1 | Staphylococcus aureus | mm | 24 |
| CSN1C(=O)O[C@@H](CN=[N+]=[N-])[C@@H]1c1ccccc1 | Staphylococcus aureus | mm | 28 |
| CSN1C(=O)OCC1Cc1ccccc1 (stereo unspecified) | Staphylococcus aureus | mm | 19 |
| CSN1CC(CCl)OC1=O (stereo unspecified) | Staphylococcus aureus | mm | 19 |
| CSN1C(=O)OC[C@H]1C(C)C | Staphylococcus aureus | mm | 22 |

====

# System: Bacillus subtilis
# procedure details: Antibacterial activity against Bacillus subtilis by agar disk diffusion method
# Format: functional
inhibition zone (IZ) reference

| smiles repr | unit | inhibition zone (IZ) |
| --- | --- | --- |
| CSN1C(=O)OC[C@H]1C(C)C | mm | 19 |
| CSN1C(=O)OC[C@@H]1C(C)C | mm | 17 |
| CSN1C(=O)OC[C@@H]1c1ccccc1 | mm | 19 |
| CSN1C(=O)OC[C@H]1c1ccccc1 | mm | 19 |

====

# Test system: Staphylococcus aureus
# procedure details: Antibacterial activity against methicillin-resistant Staphylococcus aureus USF919 ATCC 43300 by agar disk diffusion method
# Assay type: functional

| compound | system name | unit | inhibition zone (IZ) |
| --- | --- | --- | --- |
| CCC(C)SN1CC(CCl)OC1=O (centres undefined) | Staphylococcus aureus | mm | 19 |
| CSN1C(=O)O[C@@H](CN=[N+]=[N-])[C@@H]1c1ccccc1 | Staphylococcus aureus | mm | 32 |
| CSN1CC(CCl)OC1=O (centres undefined) | Staphylococcus aureus | mm | 20 |
| CSN1C(=O)OC[C@@H]1C(C)C | Staphylococcus aureus | mm | 21 |
| CSN1C(=O)OC[C@@H]1c1ccccc1 | Staphylococcus aureus | mm | 30 |
| CSN1C(=O)OCC1Cc1ccccc1 (centres undefined) | Staphylococcus aureus | mm | 19 |
| CSN1C(=O)OC[C@H]1C(C)C | Staphylococcus aureus | mm | 13 |
| CSN1C(=O)OC[C@H]1c1ccccc1 | Staphylococcus aureus | mm | 28 |
| COC(=O)[C@@H]1OC(=O)N(SC)[C@H]1c1ccccc1 | Staphylococcus aureus | mm | 11 |
